target: Angiotensin II receptor (Rattus norvegicus) (UniProt P29089+P25095+P35351); assay: Inhibitory activity on AII (100 ng/kg iv)-induced pressor response after administration at 0.1 mg/kg po in conscious male Sprague-Dawley rats at 5 h.; format: functional, organism-based; design: dose 0.1 mg/kg
readoutKind: inhibition (%)

Recorded inhibition, per entry:
CCOc1nc2cccc(C(=O)OC(C)OC(C)=O)c2n1Cc1ccc(-c2ccccc2-c2nn[nH]n2)cc1 (configuration not stated)    84
CCCCc1nc2cccc(C(=O)OC(C)OC(=O)OC3CCCCC3)c2n1Cc1ccc(-c2ccccc2-c2nn[nH]n2)cc1 (configuration not stated)    78
CCCCc1nc2cccc(C(=O)OCc3oc(=O)oc3C)c2n1Cc1ccc(-c2ccccc2-c2nnn(Cc3oc(=O)oc3C)n2)cc1.CCCCc1nc2cccc(C(=O)OCc3oc(=O)oc3C)c2n1Cc1ccc(-c2ccccc2-c2nnnn2Cc2oc(=O)oc2C)cc1    59
CCOc1nc2cccc(C(=O)OCOC(C)=O)c2n1Cc1ccc(-c2ccccc2-c2nn[nH]n2)cc1    72

[I] CCCCc1nc2cccc(C(=O)OCCN(C)C)c2n1Cc1ccc(-c2ccccc2-c2nn[nH]n2)cc1
[II] CCCCc1nc2cccc(C(=O)OCc3oc(=O)oc3C)c2n1Cc1ccc(-c2ccccc2-c2nn[nH]n2)cc1
Which value of inhibition is smaller, the one for I or the one for II ? Provide the label of your selected option as the answer.
I
(I: 26%, II: 75%)

====

molecular target: Angiotensin II receptor (Rattus norvegicus) (UniProt P29089+P25095+P35351); test: Inhibitory activity on AII (100 ng/kg iv)-induced pressor response after administration at 0.1 mg/kg po in conscious male Sprague-Dawley rats at 3 h.; type: functional, organism-based; parameters: dose 0.1 mg/kg
readoutKind: inhibition (%)

Recorded inhibition, per entry:
CCOc1nc2cccc(C(=O)OC(C)OC(=O)OC3CCCCC3)c2n1Cc1ccc(-c2ccccc2-c2nn[nH]n2)cc1 (stereo not drawn)    87
CCCCc1nc2cccc(C(=O)OCCN3CCCCC3)c2n1Cc1ccc(-c2ccccc2-c2nn[nH]n2)cc1    69
CCOc1nc2cccc(C(=O)O)c2n1Cc1ccc(-c2ccccc2-c2nnn[nH]2)cc1    67
CCCCc1nc2cccc(C(=O)O)c2n1Cc1ccc(-c2ccccc2-c2nnnn2C)cc1    56
CCOc1nc2cccc(C(=O)OCOC(=O)CC)c2n1Cc1ccc(-c2ccccc2-c2nn[nH]n2)cc1    60
CCOc1nc2cccc(C(=O)OCOC(=O)OC3CCCC3)c2n1Cc1ccc(-c2ccccc2-c2nn[nH]n2)cc1    68

[P] CCCC(=O)OCOC(=O)c1cccc2nc(OCC)n(Cc3ccc(-c4ccccc4-c4nn[nH]n4)cc3)c12
[Q] CCCCc1nc2cccc(C(=O)OCCN(C)C)c2n1Cc1ccc(-c2ccccc2-c2nn[nH]n2)cc1
Which value of inhibition is smaller, the one for P or the one for Q ? Provide the label of your selected option as the answer.
Q
(Q: 32%, P: 67%)

====

target: Angiotensin II receptor (Rattus norvegicus) (UniProt P29089+P25095+P35351); test: Inhibitory activity on AII (100 ng/kg iv)-induced pressor response at 0.1 mg/kg po in conscious male Sprague-Dawley rats at 1 h.; assay type: functional, organism-based; design: dose 0.1 mg/kg
readoutKind: inhibition (%)

Recorded inhibition, per entry:
CCCCc1nc2cccc(C(=O)OCOC(=O)C(C)(C)C)c2n1Cc1ccc(-c2ccccc2-c2nn[nH]n2)cc1    90
CCCCc1nc2cccc(C(=O)OCc3oc(=O)oc3C)c2n1Cc1ccc(-c2ccccc2-c2nnn(Cc3oc(=O)oc3C)n2)cc1.CCCCc1nc2cccc(C(=O)OCc3oc(=O)oc3C)c2n1Cc1ccc(-c2ccccc2-c2nnnn2Cc2oc(=O)oc2C)cc1    9
CCCCc1nc2cccc(C(=O)OC(C)OC(=O)OC3CCCCC3)c2n1Cc1ccc(-c2ccccc2-c2nn[nH]n2)cc1 (configuration not stated)    85

[a] CCOc1nc2cccc(C(=O)OCOC(=O)OC(C)C)c2n1Cc1ccc(-c2ccccc2-c2nn[nH]n2)cc1
[b] CCOc1nc2cccc(C(=O)OCOC(=O)c3ccccc3)c2n1Cc1ccc(-c2ccccc2-c2nn[nH]n2)cc1
[c] CCCCc1nc(Cl)c(CO)n1Cc1ccc(-c2ccccc2-c2nnn[nH]2)cc1
Please give the order of these molecules when sorted by inhibition, largest value leading. Order the labels as requested and give them as your answer.
a, c, b
(a: 55%, c: 1%, b: -2%)

====

target: Angiotensin II receptor (Rattus norvegicus) (UniProt P29089+P25095+P35351); test: Inhibitory activity on AII (100 ng/kg iv)-induced pressor response after administration at 0.1 mg/kg po in conscious male Sprague-Dawley rats at 24 h.; format: functional, organism-based; set-up: dose 0.1 mg/kg
readoutKind: inhibition (%)

CCCCOC(=O)c1cccc2nc(CCCC)n(Cc3ccc(-c4ccccc4-c4nn[nH]n4)cc3)c12    76
CCOc1nc2cccc(C(=O)OCOC(=O)C3CCCC3)c2n1Cc1ccc(-c2ccccc2-c2nn[nH]n2)cc1    9
CCOc1nc2cccc(C(=O)OCOC(=O)OC(C)C)c2n1Cc1ccc(-c2ccccc2-c2nn[nH]n2)cc1    28

[a] CCOc1nc2cccc(C(=O)OC(C)OC(C)=O)c2n1Cc1ccc(-c2ccccc2-c2nn[nH]n2)cc1 (stereo not drawn)
[b] CCCCc1nc2cccc(C(=O)OC(C)OC(=O)OCC)c2n1Cc1ccc(-c2ccccc2-c2nn[nH]n2)cc1 (stereo not drawn)
Higher inhibition between a and b ? Provide the label of your selected option as the answer.
b
(b: 61%, a: 28%)

[1] CCOc1nc2cccc(C(=O)OCOC(=O)OC3CCCCC3)c2n1Cc1ccc(-c2ccccc2-c2nn[nH]n2)cc1
[2] CCOc1nc2cccc(C(=O)OCOC(=O)C(C)C)c2n1Cc1ccc(-c2ccccc2-c2nn[nH]n2)cc1
[3] CCCCc1nc2cccc(C(=O)OC(C)OC(=O)OC3CCCCC3)c2n1Cc1ccc(-c2ccccc2-c2nn[nH]n2)cc1 (stereo not drawn)
[4] CCCCc1nc2cccc(C(=O)O)c2n1Cc1ccc(-c2ccccc2-c2nnnn2C)cc1
[5] CCCCc1nc2cccc(C(=O)O)c2n1Cc1ccc(-c2ccccc2-c2nnn(C)n2)cc1
Arrange the 5 molecules by rising inhibition, starting with the smallest. Order the labels as requested and give them as your answer.
2, 1, 4, 5, 3

====

target: Angiotensin II receptor (Rattus norvegicus) (UniProt P29089+P25095+P35351); assay: Inhibitory activity on AII (100 ng/kg iv)-induced pressor response after administration at 0.1 mg/kg po in conscious male Sprague-Dawley rats at 2 h.; type: functional, organism-based; parameters: dose 0.1 mg/kg
readoutKind: inhibition (%)

CCCCc1nc2cccc(C(=O)OCCO)c2n1Cc1ccc(-c2ccccc2-c2nn[nH]n2)cc1    10
CCCCc1nc2cccc(C(=O)O)c2n1Cc1ccc(-c2ccccc2-c2nnnn2C)cc1    29
CCCCc1nc2cccc(C(=O)O)c2n1Cc1ccc(-c2ccccc2-c2nnn(COC(=O)C(C)(C)C)n2)cc1.CCCCc1nc2cccc(C(=O)O)c2n1Cc1ccc(-c2ccccc2-c2nnnn2COC(=O)C(C)(C)C)cc1    33
CCCCOC(=O)c1cccc2nc(CCCC)n(Cc3ccc(-c4ccccc4-c4nn[nH]n4)cc3)c12    80
CCCCc1nc2cccc(C(=O)OCOC(=O)C(C)(C)C)c2n1Cc1ccc(-c2ccccc2-c2nn[nH]n2)cc1    96

[a] CCCCc1nc2cccc(C(=O)OCc3ccncc3)c2n1Cc1ccc(-c2ccccc2-c2nn[nH]n2)cc1
[b] CCCCc1nc2cccc(C(=O)O)c2n1Cc1ccc(-c2ccccc2-c2nnn(C)n2)cc1
[c] CCOc1nc2cccc(C(=O)OC(C)OC(=O)OC3CCC3)c2n1Cc1ccc(-c2ccccc2-c2nn[nH]n2)cc1 (configuration not stated)
[d] CCOc1nc2cccc(C(=O)OCOC(=O)OC3CCCCC3)c2n1Cc1ccc(-c2ccccc2-c2nn[nH]n2)cc1
Please give the order of these molecules when sorted by inhibition, largest value leading. Order the labels as requested and give them as your answer.
c, a, b, d

[I] CCCCc1nc2cccc(C(=O)OCCN3CCOCC3)c2n1Cc1ccc(-c2ccccc2-c2nn[nH]n2)cc1
[II] CCCCc1nc2cccc(C(=O)OCCN3CCCCC3)c2n1Cc1ccc(-c2ccccc2-c2nn[nH]n2)cc1
Higher inhibition between I and II ? Provide the label of your selected option as the answer.
I
(I: 96%, II: 46%)

====

molecular target: Angiotensin II receptor (Rattus norvegicus) (UniProt P29089+P25095+P35351); experiment: Inhibitory activity on AII (100 ng/kg iv)-induced pressor response after administration at 0.1 mg/kg po in conscious male Sprague-Dawley rats at 5 h.; type: functional, organism-based; design: dose 0.1 mg/kg
readoutKind: inhibition (%)

[a] CCCCc1nc2cccc(C(=O)O)c2n1Cc1ccc(-c2ccccc2-c2nnn(C)n2)cc1
[b] CCCCc1nc2cccc(C(=O)O)c2n1Cc1ccc(-c2ccccc2-c2nnnn2C)cc1
[c] CCOc1nc2cccc(C(=O)OCOC(=O)C(C)(C)C)c2n1Cc1ccc(-c2ccccc2-c2nn[nH]n2)cc1
Hello, I need these entries ordered by inhibition, highest reading first. Thanks! Order the labels as requested and give them as your answer.
c, b, a
